Exercise: state measured Conversion of cAMP, % of control (mean (±s.e.m.)) for each of the compounds provided.
- TARGET: human dopamine D2L receptor (Homo sapiens, UniProt P14416)
- Construct: host or cells: CHO-K1
- Sequence (P14416 whole entry): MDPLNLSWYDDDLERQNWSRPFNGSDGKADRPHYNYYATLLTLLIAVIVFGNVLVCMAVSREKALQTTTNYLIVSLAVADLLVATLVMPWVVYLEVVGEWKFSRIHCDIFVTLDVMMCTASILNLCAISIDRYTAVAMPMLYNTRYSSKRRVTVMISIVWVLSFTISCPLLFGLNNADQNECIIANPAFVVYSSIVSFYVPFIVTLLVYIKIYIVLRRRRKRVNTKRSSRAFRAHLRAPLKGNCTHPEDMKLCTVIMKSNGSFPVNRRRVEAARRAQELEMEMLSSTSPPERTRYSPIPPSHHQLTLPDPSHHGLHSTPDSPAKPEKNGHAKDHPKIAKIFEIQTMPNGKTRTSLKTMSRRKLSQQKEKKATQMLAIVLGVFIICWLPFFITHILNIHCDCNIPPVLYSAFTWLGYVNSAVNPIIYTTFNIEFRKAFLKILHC
- PROTOCOL TEXT: Adenylate cyclase activity (cAMP assay), inhibition of forskolin-stimulated cAMP accumulation in CHO cells
- Format: cell-based
- PROTOCOL CONDITIONS: 10^−9M test compound; control = forskolin-stimulated cAMP accumulation

Take a look at these entries with their results.
| COMPOUND | RESULT |
| --- | --- |
| O=c1[nH]c2cccc(N3CCN(Cc4cccc(-c5cccc(OS(=O)(=O)O)c5)c4)CC3)c2o1 [3′-sulfate] | 93 (9) % of control |
| O=c1[nH]c2cccc(N3CCN(Cc4cccc(-c5ccc(O)cc5)c4)CC3)c2o1 [4′-OH] | 59 (3) % of control |
| O=c1[nH]c2cccc(N3CCN(Cc4cccc(-c5cccc(O)c5)c4)CC3)c2o1 [3′-OH] | 70 (6) % of control |
| O=c1[nH]c2cccc(N3CCN(Cc4cccc(-c5ccc(OS(=O)(=O)O)cc5)c4)CC3)c2o1 [4′-sulfate] | 72 (13) % of control |

Let's switch to this compound now.
Conversion of cAMP, % of control (mean (±s.e.m.)) in this record for O=c1[nH]c2cccc(N3CCN(Cc4cccc(-c5ccccc5)c4)CC3)c2o1 [Bifeprunox] : 94 (13) % of control

----------
- TARGET: human dopamine D2L receptor (Homo sapiens)
- Construct: host or cells: CHO-K1
- PROTOCOL TEXT: Receptor binding, displacement of [3H]-spiperone on CHO cell membranes
- PROTOCOL CONDITIONS: [3H]-spiperone displacement, recombinant human D2L in CHO membranes; s.e.m. in brackets; read-out: pKi value mean ± s.e.m. (converted)
VALUE KIND: Ki (nM)
Numbers only, in nM.

Please go through the list and note Ki for each molecule.
1. O=c1[nH]c2cccc(N3CCN(Cc4cccc(-c5cccc(OS(=O)(=O)O)c5)c4)CC3)c2o1 [3′-sulfate]
2. O=c1[nH]c2cccc(N3CCN(Cc4cccc(-c5cccc(O)c5)c4)CC3)c2o1 [3′-OH]
3. O=c1[nH]c2cccc(N3CCN(Cc4cccc(-c5ccc(OS(=O)(=O)O)cc5)c4)CC3)c2o1 [4′-sulfate]
4. O=c1[nH]c2cccc(N3CCN(Cc4cccc(-c5ccc(O)cc5)c4)CC3)c2o1 [4′-OH]
5. O=c1[nH]c2cccc(N3CCN(Cc4cccc(-c5ccccc5)c4)CC3)c2o1 [Bifeprunox]

1. 12.6
2. 12.6
3. 6.31
4. 12.6
5. 39.8

----------
- TARGET: human dopamine D2L receptor (Homo sapiens, UniProt P14416)
- Construct: host or cells: CHO-K1
- PROTOCOL TEXT: Adenylate cyclase activity (cAMP assay), inhibition of forskolin-stimulated cAMP accumulation in CHO cells
- Type: cell-based
- PROTOCOL CONDITIONS: 10^−8M test compound; control = forskolin-stimulated cAMP accumulation
Exercise: state measured Conversion of cAMP, % of control (mean (±s.e.m.)) for each of the compounds provided.

| COMPOUND | TARGET | RESULT |
| --- | --- | --- |
| O=c1[nH]c2cccc(N3CCN(Cc4cccc(-c5ccc(OS(=O)(=O)O)cc5)c4)CC3)c2o1 [4′-sulfate] | human dopamine D2L receptor (Homo sapiens, UniProt P14416) | 65 (13) % of control |

Please go through the list and note Conversion of cAMP, % of control (mean (±s.e.m.)) for each compound.
1. O=c1[nH]c2cccc(N3CCN(Cc4cccc(-c5cccc(O)c5)c4)CC3)c2o1
2. O=c1[nH]c2cccc(N3CCN(Cc4cccc(-c5ccccc5)c4)CC3)c2o1

63 (7) % of control
84 (12) % of control

Please go through the list and note Conversion of cAMP, % of control (mean (±s.e.m.)) for each compound.
1. O=c1[nH]c2cccc(N3CCN(Cc4cccc(-c5ccc(O)cc5)c4)CC3)c2o1
2. O=c1[nH]c2cccc(N3CCN(Cc4cccc(-c5cccc(OS(=O)(=O)O)c5)c4)CC3)c2o1 [3′-sulfate]

["58 (4) % of control", "79 (6) % of control"]
